Please go through the items and note down their TGI.
# Tested on: UACC-257 melanoma
# METHOD: NCI tumour cell line growth inhibition, 48 h

Input: Form: Entry = Nc1cc(S(=O)(=O)O)cc2ccc(S(=O)(=O)O)cc12 | System = UACC-257 melanoma | TGI = ____
Output: > 100 µM

Input: How about O=C(COc1ccc(OCC(=O)N2C(=O)CN(c3ccccc3)C2=S)cc1)N1C(=O)CN(c2ccccc2)C1=S ?
Output: > 100 µM

Input: Same question, Clc1ccc2ncc(-c3cccc(NC4CNC4)n3)n2c1 this time
Output: 51.4 µM

Input: Lookup CN(NC1OC(CO)C(O)C(O)C1O)c1ccccc1 (centres undefined)
Output: > 100 µM

Input: Same lookup for COc1cc(C2c3cc4c(cc3[C@@H](Nc3ccc(Oc5ccccc5)cc3)C3COC(=O)[C@H]23)OCO4)cc(OC)c1O (some centres undefined) , please.
Output: 20.1 µM

Input: Please give the result for C/C(=N\NC(=S)NC(CCC(=O)O)C(=O)O)c1cnccn1 (centres undefined) too.
Output: > 100 µM

Input: Input O=CNc1ccc(S(=O)(=O)c2ccc(NC=O)cc2)cc1
Output: > 100 µM

Input: Cool, now O=Cc1c(-c2ccccc2)[nH]c2ccccc2c1=O
Output: > 100 µM

Input: Also check Clc1ccc(CCc2ccncn2)c(Cl)c1
Output: > 100 µM

Input: Same again, this time with CCOC(=O)N(C)C(=C(F)F)C(F)(F)F
Output: > 100 µM

Input: Now consider COC1CC(C)([N+](=O)[O-])C(O)C(C)O1 (centres undefined) and answer again.
Output: > 100 µM

Input: Cool, now CCN(CC)CCC1(C2CCCCC2)CCC(=O)NC1=O (centres undefined)
Output: > 100 µM

Input: Next compound: O=[N+]([O-])c1ccc(C2=NOC(c3ccc(Cl)cc3)N2C23CC4CC(CC(C4)C2)C3)cc1 (centres undefined)
Output: > 100 µM

Input: Now give it for O=C(CC(c1ccccc1)C1C(=O)NC(=S)NC1=O)c1ccc([N+](=O)[O-])cc1 (centres undefined) too.
Output: > 100 µM

Input: CN1CCN(c2ccc(NC(=O)c3cncnc3Nc3ccc(OCc4cccc(F)c4)c(Cl)c3)cc2)CC1 , same question.
Output: 2.54 µM

Input: And then NC(=O)C(=CNC(=S)Nc1ccc(S(=O)(=O)Nc2ccccn2)cc1)C(N)=O , what is it?
Output: > 100 µM

Input: CC(=O)[CH-]C(=O)c1ccccc1.CC(=O)[CH-]C(=O)c1ccccc1.CC(C)CCC[C@H](C)C1CCC2[C@@H]3CC=C4C[C@@H]([O-])CC[C@]4(C)C3CC[C@@]21C.CC(C)CCC[C@H](C)C1CCC2[C@@H]3CC=C4C[C@@H]([O-])CC[C@]4(C)C3CC[C@@]21C.Cl.[Ti+4] (some centres undefined) , same question.
Output: > 25 µM

Input: // same read-out, input: O=C1NC(=S)NC(=O)C1=Cc1ccc(-c2ccccc2)cc1
Output: > 100 µM

Input: Proceed to NC(=O)NNCc1c(-c2ccccc2)no[n+]1[O-]
Output: > 100 µM

Input: Now give it for CCOC(=O)c1cnc2c(ccc3[nH]cccc32)c1=O too.
Output: > 100 µM

Input: Do the same for CCN(CC)CCC(CNc1ccnc2cc(Cl)ccc12)c1ccccc1 (centres undefined) please
Output: 3.36 µM

Input: Then what about the compound CCOC(=O)[C@@H]1ON2O[C@H](OC3CCCCC3c3ccccc3)C[C@H]3OC(=O)[C@@H]1C32 (some centres undefined) ?
Output: > 100 µM

Input: Another: CCOc1ccc(OCC)c([P+](c2ccccc2)(c2ccccc2)c2ccccc2)c1
Output: 3.8 µM

Input: Request: CCc1[nH]c(=O)c2oc3cc4ccccc4cc3c2c1C(=O)O
Output: > 10 µM
